Catalogue of Emax values
# target: ΔF508-CFTR (Homo sapiens, UniProt P13569, DEL508-508)
# Construct: expressed in transfected cells
# Sequence (P13569 with tags, fused parts or gaps DEL508-508): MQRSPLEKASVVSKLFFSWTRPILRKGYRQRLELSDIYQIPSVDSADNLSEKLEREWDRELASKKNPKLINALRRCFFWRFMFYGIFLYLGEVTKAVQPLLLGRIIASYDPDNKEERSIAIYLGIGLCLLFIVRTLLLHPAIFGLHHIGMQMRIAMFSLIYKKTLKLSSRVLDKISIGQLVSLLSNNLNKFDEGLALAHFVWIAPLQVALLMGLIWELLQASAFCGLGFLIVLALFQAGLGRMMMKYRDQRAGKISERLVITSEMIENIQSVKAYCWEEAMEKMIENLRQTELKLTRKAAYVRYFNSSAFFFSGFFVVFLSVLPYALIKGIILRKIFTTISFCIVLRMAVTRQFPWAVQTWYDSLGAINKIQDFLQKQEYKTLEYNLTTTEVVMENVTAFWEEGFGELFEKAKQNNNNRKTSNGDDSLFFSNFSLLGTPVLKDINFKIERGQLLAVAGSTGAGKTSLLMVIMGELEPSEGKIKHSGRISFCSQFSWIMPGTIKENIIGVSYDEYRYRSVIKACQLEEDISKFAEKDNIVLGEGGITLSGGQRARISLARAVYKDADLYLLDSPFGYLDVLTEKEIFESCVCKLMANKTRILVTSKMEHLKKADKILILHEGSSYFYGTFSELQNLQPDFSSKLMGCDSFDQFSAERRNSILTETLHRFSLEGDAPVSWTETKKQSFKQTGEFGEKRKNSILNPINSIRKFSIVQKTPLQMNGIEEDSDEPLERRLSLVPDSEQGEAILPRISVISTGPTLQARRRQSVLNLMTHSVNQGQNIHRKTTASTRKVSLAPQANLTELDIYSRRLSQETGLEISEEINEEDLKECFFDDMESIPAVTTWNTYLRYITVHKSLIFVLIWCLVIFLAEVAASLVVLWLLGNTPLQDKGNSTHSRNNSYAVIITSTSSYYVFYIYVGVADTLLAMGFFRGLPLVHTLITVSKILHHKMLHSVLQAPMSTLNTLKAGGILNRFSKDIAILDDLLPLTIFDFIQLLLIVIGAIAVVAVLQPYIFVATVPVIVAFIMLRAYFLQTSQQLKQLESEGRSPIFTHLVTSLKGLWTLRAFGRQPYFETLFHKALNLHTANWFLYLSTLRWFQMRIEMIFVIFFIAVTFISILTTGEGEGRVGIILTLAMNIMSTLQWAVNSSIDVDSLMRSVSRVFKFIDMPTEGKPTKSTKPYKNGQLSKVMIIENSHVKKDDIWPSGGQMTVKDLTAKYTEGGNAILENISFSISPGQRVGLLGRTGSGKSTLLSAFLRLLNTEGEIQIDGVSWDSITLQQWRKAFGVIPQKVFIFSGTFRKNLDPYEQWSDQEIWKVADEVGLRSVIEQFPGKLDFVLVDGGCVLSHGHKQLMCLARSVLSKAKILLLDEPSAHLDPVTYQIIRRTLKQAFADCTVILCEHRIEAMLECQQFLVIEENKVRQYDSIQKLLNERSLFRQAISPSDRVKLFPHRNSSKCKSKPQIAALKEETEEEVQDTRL
# test: ΔF508-CFTR correction, membrane potential optical (FRET/VIPR) assay
# Format: cell-based
# measurementParameters: NIH3T3 mouse fibroblasts stably expressing ΔF508-CFTR; read-out: % Efficacy

// worked examples, Emax included
smilesRepr: COc1ncc(-c2nc(NC(=O)C3(c4ccc5c(c4)OC(F)(F)O5)CC3)ccc2C)cc1F
result: > 100%
//
smilesRepr: Cc1ccc(NC(=O)C2(c3ccc4c(c3)OC(F)(F)O4)CC2)nc1-c1c[nH]c(=O)c(F)c1
result: 50 to 100%
//
smilesRepr: Cc1ncc(NC(=O)C2(c3ccc4c(c3)OC(F)(F)O4)CC2)nc1-c1ccc[nH]c1=O
result: 50 to 100%

Entry under test: `COc1ncc(-c2nc(NC(=O)C3(c4ccc5c(c4)OC(F)(F)O5)CC3)ccc2C)cc1C(=O)N(C)C` . Its Emax was 50 to 100%

Entry under test: `COC(=O)Cn1cc(-c2nc(NC(=O)C3(c4ccc5c(c4)OC(F)(F)O5)CC3)ccc2C)cc(C#N)c1=O` . Its Emax was 50 to 100%

Entry under test: `COc1ncc(-c2nc(NC(=O)C3(c4ccc5c(c4)OC(F)(F)O5)CC3)ccc2C)cc1C(=O)O` . Its Emax was > 100%

Entry under test: `CNC(=O)c1cc(-c2nc(NC(=O)C3(c4ccc5c(c4)OC(F)(F)O5)CC3)ccc2C)c[nH]c1=O` . Its Emax was 50 to 100%

Source of measurements: patent US8969386B2
